ASSAY_INFO: pKa of −SH groups by photometric method
Type: physicochemical
CONDITION_DETAILS: 0.001 M HCl containing 0.1 M NaCl, titrated with 0.01% NaOH; absorbance at 242 nm, 0.1% m/v
PROPERTY: pKa
Please respond with just the number, no unit label.

Problem: Specify measured pKa for O[C@@H]1[C@@H](O)[C@H]2O[C@H]3[C@H](O)[C@@H](O)[C@@H](O[C@H]4[C@H](O)[C@@H](O)[C@@H](O[C@H]5[C@H](O)[C@@H](O)[C@@H](O[C@H]6[C@H](O)[C@@H](O)[C@@H](O[C@H]7[C@H](O)[C@@H](O)[C@@H](O[C@@H]1[C@@H](CS)O2)O[C@@H]7CS)O[C@@H]6CS)O[C@@H]5CS)O[C@@H]4CS)O[C@@H]3CS [per-6-thiolated α-CD, per-6-thiolated α-cyclodextrin] .
Result: 8.1

###

ASSAY_INFO: Resazurin cytotoxicity assay on Caco-2 cells
Assay type: cell-based, human
CONDITION_DETAILS: human, after 24 h, read-out: cell viability
PROPERTY: viability at 24 h, 0.5 % (m/v)

Problem: Give recorded viability at 24 h, 0.5 % (m/v). O[C@@H]1[C@@H](O)[C@H]2O[C@H]3[C@H](O)[C@@H](O)[C@@H](O[C@H]4[C@H](O)[C@@H](O)[C@@H](O[C@H]5[C@H](O)[C@@H](O)[C@@H](O[C@H]6[C@H](O)[C@@H](O)[C@@H](O[C@H]7[C@H](O)[C@@H](O)[C@@H](O[C@@H]1[C@@H](CS)O2)O[C@@H]7CS)O[C@@H]6CS)O[C@@H]5CS)O[C@@H]4CS)O[C@@H]3CS [per-6-thiolated α-CD, per-6-thiolated α-cyclodextrin]
Result: > 88%
